Listing of entries alongside the reported inhibition.
TESTED_SYSTEM: L-lactate dehydrogenase (Plasmodium falciparum (isolate CDC / Honduras)) (UniProt Q27743)
Sequence (Q27743 whole entry, looked up): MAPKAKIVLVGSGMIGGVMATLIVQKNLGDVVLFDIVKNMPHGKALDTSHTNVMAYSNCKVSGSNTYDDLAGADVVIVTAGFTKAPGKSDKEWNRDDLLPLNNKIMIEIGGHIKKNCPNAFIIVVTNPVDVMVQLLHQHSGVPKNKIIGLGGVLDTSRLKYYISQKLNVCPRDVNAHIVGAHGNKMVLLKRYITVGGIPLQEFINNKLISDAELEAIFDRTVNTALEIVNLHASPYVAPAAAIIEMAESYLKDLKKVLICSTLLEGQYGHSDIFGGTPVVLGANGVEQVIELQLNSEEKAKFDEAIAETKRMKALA
PROTOCOL: PfLDH activity inhibition – cell lysate, 3D7 strain, counter-screen for P. falciparum growth inhibition project (AID 2304);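 further: 0% = vehicle and 100% = reference inhibitor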
TEST_CONDITIONS: P. falciparum 3D7 crude extract, LDH APAD/NBT absorbance; at 2 µM; active compounds read high
The source made the active and inactive calls. How the calls were made is not given here.

Solved entries (count: 5):
O=C(C=Cc1ccc([N+](=O)[O-])cc1)N1CCC(CCN2CCC(c3c[nH]c4ccccc34)CC2)CC1 :: -2% (inactive)
COc1cc2ncnc(Nc3ccc(OCc4ccccc4)c(C(F)(F)F)c3)c2cc1OC :: 3% (inactive)
CC(C)NCc1cc(Nc2ccnc3cc(Cl)ccc23)ccc1O :: 6% (inactive)
NC1=NC(c2ccccc2)(c2ccccc2)C(=O)N1Cc1ccc(-c2cccnc2)cc1 :: 5% (inactive)
CCN(CC)CCCn1c(N)c(-c2nc3ccccc3[nH]2)c2nc(C#N)c(C#N)nc21 :: 2% (inactive)

## Input # get_value(readout='inhibition', item= C[C@@H](CC1CCCCC1)OC(=O)N(C)[C@H]1CCN(C#N)C1 )
## Output -6% (inactive)

## Input Could you share which inhibition value was measured for CCCCCCC(C)c1cc(O)c2c(c1)OC(C)(C)C=C2c1ccncc1 (stereo not drawn) ?
## Output 0% (inactive)

## Input May I ask what inhibition has been recorded for O=C(NCCCN1CCC(N2CCCCC2)CC1)C1=Cc2cc(Br)ccc2OC1 ?
## Output -1% (inactive)

* * *

PROTOCOL: human hepatoma cell viability loss – ATP luminescence, cytotoxicity control for P. falciparum antimalarial project, primary screen (AID 2303);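 further: 0% = DMSO wells and 100% = digitonin-killed cells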
TEST_CONDITIONS: HepG2 viability, 24-48 h, at 10 µM, active compounds read high
ENDPOINT_LABEL: inhibition (%)
Write the value in % as a bare number.

CCCCC(=O)Nc1ccc(Nc2nc(C)cc(N3CCCC3)n2)cc1 :: 38

## Input Requested field: inhibition. Item: O=C(/C=C/c1ccc(Cl)c(Cl)c1)NCCCCCN1CCCN(C(=O)Nc2ccc(Br)cc2)CC1
## Output 38

## Input So what's the measured inhibition for this one? CCOc1c(CNCCCNc2cc(=O)c3ccccc3[nH]2)cc(I)cc1C(C)(C)C
## Output 17

## Input For the compound shown here, COc1cc(NC(=O)c2sc(-c3ccc(Cl)cc3)cc2NC(=O)N2CCCC2)ccc1OCCN1CCCC1 , give the reported inhibition.
## Output 22

## Input // query inhibition value for entry Cc1cc(-c2ccc3c(c2)CCN(CCC2CCC(NC(=O)/C=C/c4cccc(F)c4)CC2)CC3)on1 (stereo not given)
## Output 23

* * *

TESTED_SYSTEM: Calcium-dependent protein kinase 1 (Plasmodium falciparum (isolate 3D7))
PROTOCOL: PfCDPK1 kinase inhibitors, biochemical, TCAMS library (AID 1159585);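 further: inhibitors leave more ATP so luminescence rises with inhibition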
TEST_CONDITIONS: recombinant PfCDPK1, Kinase-Glo ATP depletion luminescence
Results with a measured potency or affinity are listed apart. Calls of active or inactive are those of the source. The limit is not given here; nearly all actives have IC50 up to about 0.98 µM.
ENDPOINT_LABEL: outcome

COC1(C)Oc2ccc3cccc([N+](=O)[O-])c3c2C1=O (centres undefined) :: inactive
O=C(/C=C/c1ccc(Cl)c(Cl)c1)NCCCCCN1CCCN(C(=O)Nc2ccc([N+](=O)[O-])cc2)CC1 :: inactive
Cc1cc(C(=O)N[C@H]2CCN(Cc3ccc(OCCCN(C)C)cc3)C2)ccc1Br :: inactive
Cc1cc2ncn(-c3ccnc(N4CCN(CCCN5CCCC5)CC4)n3)c2cc1C :: inactive
O=C(Nc1ccc(C(=O)OC[C@@H]2CCCN3CCCC[C@H]23)cc1)c1ccc(Cl)c(Cl)c1 :: inactive

## Input Reported outcome, molecule CCOc1cc(-c2nnc3[nH]c(=O)n(C)c(=O)c3n2)ccc1OC(C)C : ____
## Output inactive

## Input # outcome lookup, item CC1(C)N=C(N)N=C(N)N1OCCCc1cc(Cl)c(Cl)cc1Cl
## Output inactive

## Input Which outcome value belongs to CCCCCCCC1CCN(C[C@H](O)c2ccnc3ccc(OC)cc23)CC1 ?
## Output inactive

## Input Quick check: outcome of Cc1cc(NC2CCN(CC3CCCCC3)C2)nc(Nc2ccc(Cl)cc2)n1 (centres undefined) ?
## Output inactive

## Input Suppose we examine the molecule CN1CCN(c2ccc(Nc3ncc([N+](=O)[O-])c(Nc4ccccc4O)n3)cc2)CC1 ; what outcome value has been reported?
## Output inactive

## Input # get_value(readout='outcome', item= O=S(=O)(Nc1cccc(CCN2CCC(N3CCCCC3)CC2)c1)c1ccc(Cl)cc1 )
## Output inactive

## Input What does the record list as outcome for Cc1cc(NC(=O)c2cccs2)ccc1OC1CCN(Cc2ccc(C#N)cc2)C1 (centres undefined) ?
## Output inactive

## Input Which measured outcome value corresponds to CCOC(=O)c1cnc2c(OC)cc(OC)c(Cl)c2c1Nc1cccc(C)c1 ?
## Output inactive

## Input I would be grateful if you could share the reported outcome for CC1(C)N=C(N)N=C(N)N1OCCOc1cccc(C(F)(F)F)c1 .
## Output inactive

## Input Form field: reported outcome of c1ccc(-c2csc(Nc3nc4cc5c(cc4s3)OCO5)n2)nc1
## Output inactive

## Input Need outcome of CC(=O)Nc1cccc(C(=O)Nc2ccc(-c3ccc(-c4nc5c(C)cccc5[nH]4)s3)cc2)c1 , thanks.
## Output inactive

* * *

PROTOCOL: human hepatoma cell viability loss – ATP luminescence, cytotoxicity control for P. falciparum antimalarial project, primary screen (AID 2303);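 further: 0% = DMSO wells and 100% = digitonin-killed cells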
TEST_CONDITIONS: HepG2 viability, 24-48 h, at 10 µM, active compounds read high
Measured inhibition by item
Return type: number; implicit unit %.

Example entries and their recorded answers appear below.
COc1ccccc1NC(=O)CSc1nc2cccnc2n1-c1ccccc1OC :: -4
CC(CN1CCN(C)CC1)C(=O)Nc1ccc(-c2ccc(-c3nc4ccc(F)cc4[nH]3)cc2)cc1 (centres undefined) :: 19
O=C(c1ccc([N+](=O)[O-])o1)N1CCC(c2cn(Cc3cccc(F)c3)c3ccccc23)CC1 :: 1
CCN(CC)CCN(Cc1ccc(-c2ccc(C(F)(F)F)cc2)cc1)C(=O)Cn1c(CCc2cc(F)cc(F)c2)nc(=O)c2ccccc21 :: 30
COC(=O)c1cccc(CNCc2ccc(-c3cccc(-c4nc5ccccc5[nH]4)c3)cc2)c1 :: 5

## Input Dear colleague, I am looking for the recorded inhibition of the following molecule: O=c1[nH]c2c(cc1CNC1CCCCC1)c(-c1ccc(F)cc1)nn2-c1ccccc1
## Output 8

## Input Data request, read-out inhibition, for CCOC(=O)c1c(C)n(-c2ccccc2)c2ccc(OC(=O)COc3ccc(Cl)cc3Cl)cc12
## Output 11

## Input May I ask what inhibition has been recorded for CC1(C)N=C(N)N=C(N)N1OCCCOc1ccc([N+](=O)[O-])cc1 ?
## Output 68

## Input For the molecule shown here, COc1cc(C)nc2ccc(NC(=O)COCC(=O)Nc3ccc4nc(C)cc(OC)c4c3)cc12 , give the reported inhibition.
## Output 67

* * *

Measured growth inhibition, listed per entry for reference.
PROTOCOL: inhibition of 3D7 malaria parasite growth – strain 3D7 (AID 2306);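 further: 0% = DMSO wells and 100% = chloroquine plus artemisinin control wells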
TEST_CONDITIONS: P. falciparum 3D7 erythrocytic growth, LDH absorbance, 72 h; at 2 µM; active compounds read high
Active and inactive are the calls of the source. The rule behind the calls is not given here.

CCn1ccc2c(N3CCCCS3(=O)=O)cc(C(=O)N[C@@H](Cc3ccccc3)[C@H](O)CNC3CCCCC3)cc21 :: 98% (active)

## Input Sample Cc1[nH]c(C)c(-c2ccc(-c3ccc(OC(F)(F)F)cc3)cc2)c(=O)c1Cl — what was its growth inhibition?
## Output 98% (active)

## Input Return reported growth inhibition; argument: CCNc1cc(C(=O)N[C@@H](Cc2cccc(F)c2)[C@H](O)CNC(C)CCCC(C)C)cc(N2CCCCS2(=O)=O)c1 (some centres undefined)
## Output 98% (active)

## Input Find the recorded growth inhibition belonging to S=C(NCCCCCN1CCC(c2c[nH]c3ccccc23)CC1)Nc1ccc(Cl)c(Cl)c1 and report it.
## Output 101% (active)

* * *

Recorded growth inhibition by entry
PROTOCOL: inhibition of 3D7 malaria parasite growth – strain 3D7 (AID 2306);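 further: 0% = DMSO wells and 100% = chloroquine plus artemisinin control wells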
TEST_CONDITIONS: P. falciparum 3D7 erythrocytic growth, LDH absorbance, 72 h; at 2 µM; active compounds read high
Number only, in %; omit the unit.

Nc1nc(N)c2c(ccc3c2ccn3C2C=CCCC2)n1 (stereo not given) :: 94

## Input Quick one: growth inhibition for Fc1ccc2c(NN=Cc3ccccc3)ccnc2c1 ?
## Output 100

## Input If you can, please state the reported growth inhibition value of COc1ccc2c(NN=Cc3cccc(Cl)c3)cc(C)nc2c1 .
## Output 103

## Input Entry under review: COc1cc(C(=O)N2CCN(C(C)C)CC2)ccc1CN(C)CCCCN1CCN(c2cccc(Cl)c2Cl)CC1 . Reported growth inhibition?
## Output 101

## Input Return reported growth inhibition; argument: c1cncc(CCNCc2ccc(-c3ccc(-c4nc5ccccc5[nH]4)s3)cc2)c1
## Output 101

## Input Looking for the measured growth inhibition of O=C(Nc1ccccc1Cl)N(Cc1cc(Cl)cc(Cl)c1)CC(O)COc1ccc(Cl)c(F)c1 (stereo not given) , can you help?
## Output 93

## Input Request the reported growth inhibition associated with CCCCC(=O)Nc1ccc(Nc2nc(C)cc(N3CCCC3)n2)cc1
## Output 101

## Input Quick check: growth inhibition of c1cc(CN2CCC(CCN3CCCCC3)CC2)cc(-c2csc(-c3nc4ccccc4[nH]3)c2)c1 ?
## Output 99

## Input Consider the molecule Cc1cccc2[nH]c(-c3cccc(-c4cccc(NC(=O)Nc5ccc(F)c(F)c5F)c4)c3)nc12 and give its measured growth inhibition.
## Output 100
